Reference source for all entries: patent US8580829B2

Tested on: synthesis of LTB4 in human whole blood
Experiment: human whole blood LTB4 production inhibition assay
Assay type: cell-based
Conditions: heparinized human whole blood, calcimycin 20 μM; read-out: hWB LTB4 IC50
REPORTED_METRIC: IC50 (nM)
Please give a number only; it is taken to be in nM.

stdin: Quick check: IC50 of Nc1ncc(-c2ccc(C3(c4noc(-c5cnc(N6CCNCC6)cn5)n4)CCC3)cc2)cn1 [Example 214] ?
stdout: 150

stdin: Check "CCNC(=O)Cn1cc(-c2nc(C3(c4ccc(-c5cnc(N)nc5)cc4)CCC3)no2)cn1" too.
stdout: 75

stdin: Can you check COC(=O)[C@@H]1CN(c2cnc(-c3nc(C4(c5ccc(-c6cnc(N)nc6)cc5)CCC4)no3)cn2)CCN1 [Example 309] next?
stdout: 760

stdin: Also "CCN(C)C(=O)Cn1cc(-c2nc(C3(c4ccc(-c5cnc(N)nc5)cc4)CCC3)no2)cn1" ?
stdout: 38

###

Molecular target: recombinant human FLAP protein (Homo sapiens, UniProt P20292)
Sequence (P20292 whole entry): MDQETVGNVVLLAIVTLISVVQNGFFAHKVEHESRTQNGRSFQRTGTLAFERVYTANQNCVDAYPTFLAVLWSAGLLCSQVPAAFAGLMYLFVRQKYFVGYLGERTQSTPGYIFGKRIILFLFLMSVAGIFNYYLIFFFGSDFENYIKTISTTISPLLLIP
Test: FLAP binding assay (Scintillation Proximity Assay, displacement of [125I]L-691,831)
Details: recombinant human FLAP membranes, [125I]L-691,831 probe; read-out: FLAP SPA IC50
REPORTED_METRIC: pIC50
Scale note: pIC50 = -log10(concentration in M).

stdin: Quick check: pIC50 on recombinant human FLAP protein (Homo sapiens, UniProt P20292), item "Nc1ncc(-c2ccc(C3(c4noc(-c5cccc(O)c5)n4)CCC3)cc2)cn1" ?
stdout: 8.49

stdin: Moving on to the next compound: "Cn1cc(-c2nc(C3(c4ccc(-c5cnc(N)c(CO)c5)cc4)CCC3)no2)cn1"
stdout: 8.06

stdin: Same for "Nc1ncc(-c2ccc(C3(c4noc(-c5cocn5)n4)CCC3)cc2)cn1"
stdout: 8.09

stdin: # repeat for CC(CN(C)C)n1cc(-c2nc(C3(c4ccc(-c5cnc(N)nc5)cc4)CCC3)no2)cn1 (centres unmarked)
stdout: 8.11

stdin: Continue with "Nc1ncc(-c2ccc(C3(c4noc(COCc5ccccc5)n4)CCOCC3)cc2)cn1"
stdout: 6.68

stdin: What about "CN(C)C(=O)Cn1cc(-c2nc(C3(c4ccc(-c5cnc(N)nc5)cc4)CCC3)no2)cn1" ?
stdout: 8.21

stdin: Moving on to "Cc1ccc(-c2nc(C3(c4ccc(-c5cnc(N)nc5)cc4)CCC3)no2)c(=O)[nH]1"
stdout: 8.77

stdin: Please give the result for "Nc1ncc(-c2ccc(C3(c4noc(-c5ccc(Cl)cc5)n4)CCC3)cc2)cn1" too.
stdout: 8.12

###

Target: recombinant human FLAP protein (Homo sapiens, UniProt P20292)
Test: FLAP binding assay (Scintillation Proximity Assay, displacement of [125I]L-691,831)
Settings: recombinant human FLAP membranes, [125I]L-691,831 probe; read-out: FLAP SPA IC50
Field: pIC50. Provide a value for each of the compounds that follow.
# pIC50 is unitless: minus log10 of the molar concentration; print number only

stdin: GET /values?readout=pIC50&item= "Nc1ncc(-c2ccc(C3(c4noc(-c5cnc(N6CCOCC6)cn5)n4)CCC3)cc2)cn1"
stdout: 8.89

stdin: Param item: "Nc1ncc(-c2ccc(C3(c4noc(-c5ccc(N6CCC[C@@H]6CO)nc5)n4)CCC3)cc2)cn1"
stdout: 8.60

stdin: Next: "Cc1cc(C)c(-c2nc(C3(c4ccc(-c5cnc(N)nc5)cc4)CCC3)no2)c(=O)[nH]1"
stdout: 8.70

stdin: Next compound up: "CO[C@@H]1CCN(C(=O)Cn2cc(-c3nc(C4(c5ccc(-c6cnc(N)nc6)cc5)CCC4)no3)cn2)C1"
stdout: 7.66
